# melting point per record follows

As a guide, the following entries are already answered.
O=C(Nc1ccccc1)Nc1ccnc(C(F)(F)F)c1 : 169 to 171 °C
OC(CCc1ccccc1)c1cnc2sc3c(n12)CCC3 (stereo not drawn) : 117 to 118 °C

Consider the additional molecule presented here.
Task: I'd like to know its melting point. The molecule in question is `O=C1NC(=O)C(=Cc2ccc(-c3cc(C45CC6CC(CC(C6)C4)C5)c4oc(NC(=O)C(F)(F)F)nc4c3)nc2)S1`
Output: 353 °C

---

measurement label: melting point

O=C1NCC=NN1c1cc(Cl)c(Sc2ccc(Cl)cc2)c(Cl)c1 : 224 to 225 °C
CC(=O)N1CCC(C(C)(O)c2ccc(Cl)cc2)CC1 (stereo not given) : 178 to 180 °C
O=c1c2cccnc2c(-c2cccc(Cl)c2)cn1CC1CCCC1 : 122 to 124 °C
CCOC(=O)c1c(OCC)cc(C=O)cc1OCC : 117 to 119 °C

Turning now to a further record.
Task: Form field: reported melting point of `Cn1c(-c2c(F)cccc2F)nn(-c2ccccc2C(F)(F)F)c1=O`
Output: 98 to 99 °C

---

measurement label: melting point

CCOC(=O)c1cnc(CCOC)nc1NCc1ccc(-c2ccccc2-c2nnnn2C(c2ccccc2)(c2ccccc2)c2ccccc2)cc1 : 128 to 130 °C

Task: For `C[C@H](CO)NC1=NS(=O)(=O)c2sc(Cl)cc2N1` , what is its reported melting point?
Output: 203 to 204 °C

Task: Item COc1ccc2c(c1OC)CCC(NC(=O)C(F)(F)F)C2=O (configuration not stated) has what recorded melting point?
Output: 166 to 167 °C

Task: Entry Cc1ccc2c(C3CN4CCC3CC4)c(C)[nH]c2c1 (configuration not stated) : reported melting point = ?
Output: 237 to 238 °C

Task: Consider the compound shown here: `O=C1c2c(O)ccc(O)c2C(=O)c2c(NCCN3CCOCC3)ccc(NCCN3CCOCC3)c21` What is its recorded melting point?
Output: 241 to 243 °C

Task: State the recorded melting point for this entry: C=C(CN(C)C)C(O)c1ncc2c(c1O)COC2c1ccc(Cl)cc1 (configuration not stated)
Output: 195 to 200 °C

Task: What value of melting point has been recorded for this entry: `CCCCOC(=O)c1ccccc1C(=O)Nc1nc2ccccc2[nH]1`
Output: 187 °C

---

melting point: recorded values

Study these solved cases before continuing.
COC(=O)c1cc2c3ccccc3n(C(=O)c3ccccc3)c2s1 : 150 to 151 °C
CC(C)c1cc(C(=O)O)oc1C(C)C : 105 to 106 °C
COc1cc2ncnc(N3CCC(CCBr)CC3)c2cc1OC : 191 °C
COc1cccc2c(=O)[nH]nc(C)c12 : 257 to 260 °C
CC(C)(C)c1cc(CCC(=O)O)cc2c1OC(=O)C2 : 167 to 169 °C

Task: Which value of melting point has been reported for `O=C1N(C2=NCCS2)c2ccccc2C12SCCS2` in the records?
Output: 154 to 157 °C

Task: Look at this compound and give its reported melting point. COCCOc1ccccc1OCC(O)CN1C(C)CCCC1C (configuration not stated)
Output: 92 to 94 °C

---

Entries and their measured melting point follow.

COCCOc1ccc(CCCC2OCCO2)c(Oc2ncc(C(F)(F)F)cc2Cl)c1 : 92 to 92.5 °C
COc1cc(C(C)C)c2c(c1)S(=O)(=O)N(COC(=O)c1c(C)c3cc(Cl)ccc3n1C)C2=O : 183 to 184 °C
Cc1cccc(C)c1NC(=S)N1CC(Oc2cccc(C(F)(F)F)c2)C1 : 197 to 199 °C
Brc1cc(C#Cc2ccccc2)c(Br)cc1C#Cc1ccccc1 : 155 to 158 °C

Next:
Task: What melting point value was documented for this compound, CC(C)(C)OC(=O)Cc1ccc(CC(N=C(c2ccccc2)c2ccccc2)C(=O)OCc2ccccc2)cc1 (stereo not given) ?
Output: 139 to 141 °C
